- Test system: DMPK
- Measurement Protocol: DMPK knockdown by transfected antisense oligonucleotides in DM1 C15 myotubes at 0.5 nM and 50 nM
- Type: cell-based
- Particulars: 50 nM oligonucleotide, 72 hours
Rule: Percent DMPK Reduction of 80% or more gives Satisfied; anything lower gives Not satisfied.

Request: Is Percent DMPK Reduction at least 80%? Consider 380 (UGCCCAUAGAACAUUUCAUA; chemistry not given here) [compound 380]
Response: Not satisfied

Request: Is Percent DMPK Reduction at least 80%? Consider 424 (CCAUUCACCAACACGUCCCU; chemistry not given here) [compound 424]
Response: Satisfied

Request: Is Percent DMPK Reduction at least 80%? Consider 433 (GCGGAUGGCCUCCAUCUCCC; chemistry not given here) [compound 433]
Response: Not satisfied

Request: Is Percent DMPK Reduction at least 80%? Consider 429 (GCGGUCCAGCAGGAUGUUGU; chemistry not given here) [compound 429]
Response: Satisfied

Request: Is Percent DMPK Reduction at least 80%? Consider 477 (CAGCGGCAGAGAGAGGUGCT; chemistry not given here) [compound 477]
Response: Satisfied

Request: Is Percent DMPK Reduction at least 80%? Consider 428 (UUGAUGUCCCUGUGCACGU; chemistry not given here) [compound 428]
Response: Not satisfied

Request: Is Percent DMPK Reduction at least 80%? Consider 410 (UACAGGUAGUUCUCAUCCUG; chemistry not given here) [compound 410]
Response: Not satisfied

Request: Is Percent DMPK Reduction at least 80%? Consider 393 (UUGGCCGGCGUGGGCCACCA; chemistry not given here) [compound 393]
Response: Not satisfied

Request: Is Percent DMPK Reduction at least 80%? Consider 404 (CUCUGCCUCGCGUAGUUGAC; chemistry not given here) [compound 404]
Response: Satisfied

###

Kindly supply the reported Normalized DMPK Remaining values for the records listed here.
- Test system: DMPK
- Measurement Protocol: DMPK knockdown by transfected antisense oligonucleotides in DM1 C15 myotubes at 0.5 nM and 50 nM
- Assay type: cell-based
- Particulars: 0.5 nM oligonucleotide, 72 hours, qPCR, relative to vehicle control = 1.00
Write the value as a bare number.

DMPK assay, substance 298 (UGCUUCAUCUUCACUACCGC; chemistry not given here) [compound 298] , recorded Normalized DMPK Remaining = 0.71

DMPK assay, substance 264 (AGGAUGUUGUCGGGUUUGAU; chemistry not given here) [compound 264] , recorded Normalized DMPK Remaining = 0.76

DMPK assay, substance 333 (AUGGCAUACACCUGGCCCGU; chemistry not given here) [compound 333] , recorded Normalized DMPK Remaining = 0.86

DMPK assay, substance 268 (UCAGUGCAUCCAAAACGUGG; chemistry not given here) [compound 268] , recorded Normalized DMPK Remaining = 0.84

DMPK assay, substance 372 (UGGCCAUGACAAUCUCCGCC; chemistry not given here) [compound 372] , recorded Normalized DMPK Remaining = 0.70

DMPK assay, substance 291 (AUACUCCAUGACCAGGUACA; chemistry not given here) [compound 291] , recorded Normalized DMPK Remaining = 0.77

DMPK assay, substance 252 (UCUCGGCCGGAAUCCGCUCC; chemistry not given here) [compound 252] , recorded Normalized DMPK Remaining = 0.72

DMPK assay, substance 304 (UUCCCGAGUAAGCAGGCAGA; chemistry not given here) [compound 304] , recorded Normalized DMPK Remaining = 0.69
